- assayed.target: UniProt:Q9BY41
- Sequence (Q9BY41 whole entry): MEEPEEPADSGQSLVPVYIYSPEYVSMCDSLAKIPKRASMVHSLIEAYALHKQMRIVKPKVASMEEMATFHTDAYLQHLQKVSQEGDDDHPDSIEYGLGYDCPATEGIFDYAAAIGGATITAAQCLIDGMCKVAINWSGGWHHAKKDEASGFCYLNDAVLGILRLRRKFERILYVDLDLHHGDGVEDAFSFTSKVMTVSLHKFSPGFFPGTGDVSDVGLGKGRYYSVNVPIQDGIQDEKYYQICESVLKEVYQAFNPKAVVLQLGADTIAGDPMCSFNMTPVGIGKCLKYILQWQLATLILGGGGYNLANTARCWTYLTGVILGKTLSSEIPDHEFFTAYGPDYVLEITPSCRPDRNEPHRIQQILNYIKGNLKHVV
- procedure.summary: HDAC enzymatic assay (Reaction Biology), HDAC8 substrate
- Assay type: biochemical
- Set-up: purchased Reaction Biology
- condition.notes: 10-dose response curve; read-out: Compound IC50 (M), HDAC8
result.type: IC50 (M)
Write down the numeric answer in M and omit the unit.

Record for Cc1ncsc1-c1ccc([C@H](C)NC(=O)[C@@H]2C[C@@H](O)CN2C(=O)[C@@H](NC(=O)CCOCCOCCN(CCc2c[nH]c3ccccc23)Cc2ccc(/C=C/C(=O)NO)cc2)C(C)(C)C)cc1 under target or system UniProt:Q9BY41: IC50 reported as 1.16e-06
